This section presents molecules with their documented CC50 values.
# ASSAY EXPLANATION: Cytotoxicity against PHA-stimulated human PBMC incubated for 6 hrs followed by compound-wash out measured after 6 days
# Type: cell-based

Nc1ccn([C@@H]2CS[C@H](CO)O2)c(=O)n1 | > 13.1 µM

Let us examine a further case.
Problem: Annotate the molecule CCCCCCCCCCCCCC(=O)OC[C@@H]1O[C@H](n2ccc(N)nc2=O)CS1 with its measured CC50.
Solution: > 6.83 µM

====

# System: Human immunodeficiency virus 1
# ASSAY EXPLANATION: Antiviral activity against multidrug-resistant HIV1 4755-5 clade B clinical isolate infected in PHA-stimulated human PBMC assessed as inhibition of viral replication incubated for 6 hrs followed by compound-wash out measured after 6 days by liquid scintillation counting
# Format: functional, organism-based
# ASSAY SETUP: Human immunodeficiency virus 1, 4755-5 clade B
ENDPOINT: IC50 (µM)
Dear colleague, please return just the value in µM, with no unit written.

Problem: Give IC50 only, for CCCCCCCCCCCCCC(=O)OC[C@@H]1O[C@H](n2ccc(N)nc2=O)CS1 , using Human immunodeficiency virus 1 data.
Solution: 5.09

Data origin, for the record: ChEMBL document CHEMBL2086298
